# Test system: SF-539 CNS
# assay-text: NCI tumour cell line growth inhibition, 48 h
Measured log10 TGI accompanies every entry in the list below.
measure: log10 TGI (log10 of the value in µM)

- compound: "O=C1C=CC(=O)c2c(O)c(NCCN3CCOCC3)c(Cl)c(O)c21"
  measure: "log10 TGI"
  value: 0.52
- compound: "CCCCCCCC(=O)Nc1nc2[nH]c(CN3CCN(Cc4cccc(I)c4)CC3)c(CN3CCN(Cc4cccc(I)c4)CC3)c2c(=O)[nH]1"
  measure: "log10 TGI"
  value: 0.21
- compound: "C#Cc1cccc(Nc2nc(C)nc3cc(NC(=O)CCl)ccc23)c1"
  measure: "log10 TGI"
  value: 0.82
- compound: "COc1ccc(OC)c(-c2cc(-c3ccc(Cl)cc3)nn2-c2ccccc2)c1"
  measure: "log10 TGI"
  value: 1.98
- compound: "CC1=NC(C)=C(/C(C)=N/NC(=O)c2ccccc2O)C(C)/C1=C(/C)NNC(=O)c1ccccc1O (stereo not given)"
  measure: "log10 TGI"
  value: 1.88

* * *

# Tested on: T-47D breast
# assay-text: NCI tumour cell line growth inhibition, 48 h; in the data active = GI50 below about 0.43 µM; inactive = the rest
Labels: 1 (active), -1 (inactive)

- molecule: "CC1(C)N=C(N)N=C(N)N1c1cccc(CCCCc2ccc(Cl)c(S(=O)(=O)F)c2)c1"
  target-under-test: "T-47D breast"
  class: -1
- molecule: "O=c1cc(-c2ccccc2)oc2c(O)c(O)ccc12"
  target-under-test: "T-47D breast"
  class: -1
- molecule: "COc1cc(/C=C2\\C[C@H]3[C@@H]4CC=C5C[C@@H](O)CC[C@]5(C)[C@H]4CC[C@]3(C)[C@H]2O)ccc1OCCN1CCCCC1"
  target-under-test: "T-47D breast"
  class: -1
- molecule: "O=C1NN(C(=O)c2ccccc2)C(c2ccc(Cl)c(Cl)c2)=C/C1=C\\c1ccccc1[N+](=O)[O-]"
  target-under-test: "T-47D breast"
  class: -1
- molecule: "O=C1/C(=C/c2ccc(Cl)cc2)N=C(c2ccccc2)N1c1cc(C(F)(F)F)ccc1Cl"
  target-under-test: "T-47D breast"
  class: -1
- molecule: "COc1ccc2c(c1)C(=O)c1c-2n(CCCN=[N+]=[N-])c(=O)c2cc([N+](=O)[O-])ccc12"
  target-under-test: "T-47D breast"
  class: -1
- molecule: "[Mn+3].[O-][Cl+3]([O-])([O-])O.[O-]c1ccccc1C=NCCN1CC1.[O-]c1ccccc1C=NCCN1CC1"
  target-under-test: "T-47D breast"
  class: -1
- molecule: "CCCCNC(=O)Oc1ccc(/C(=C(\\C)c2ccc(OC)cc2)c2ccc(OCCN3CCCCC3)cc2)cc1"
  target-under-test: "T-47D breast"
  class: -1
- molecule: "C=C(C)[C@@H]1C/C=C(/COC(C)=O)CC[C@H]2O[C@@]2(C)CC/C=C(\\C)CC1"
  target-under-test: "T-47D breast"
  class: -1
- molecule: "NC(=O)c1ccc(I)c([N+](=O)[O-])c1"
  target-under-test: "T-47D breast"
  class: -1
- molecule: "COc1nc2c(c(=O)n1C)CN(c1ccccc1)C(=O)CN2C"
  target-under-test: "T-47D breast"
  class: -1
- molecule: "CC1(C)CC[C@]2(C(=O)NCCNCCN)CC[C@]3(C)C(=CC[C@@H]4[C@@]5(C)CCC(=O)C(C)(C)[C@@H]5CC[C@]43C)[C@@H]2C1"
  target-under-test: "T-47D breast"
  class: -1
- molecule: "O=C(Nc1ccc(Cl)cc1)c1cc(NCc2cc(O)ccc2O)ccc1O"
  target-under-test: "T-47D breast"
  class: -1
- molecule: "O=C(N/N=C/c1ccc([N+](=O)[O-])cc1)c1ccccc1Nc1ccnc(C(F)(F)F)c1"
  target-under-test: "T-47D breast"
  class: -1
- molecule: "Cc1cc(C)c([I+]c2c(C)cc(C)cc2C)c(C)c1"
  target-under-test: "T-47D breast"
  class: 1
- molecule: "CO[C@H]1/C=C/O[C@@]2(C)Oc3c(C)c(O)c4c(O)c(c(/C=N/N5C(C)CN(Cc6ccc(C#N)cc6)CC5C)c(O)c4c3C2=O)NC(=O)/C(C)=C\\C=C\\[C@H](C)[C@H](O)[C@@H](C)[C@@H](O)[C@@H](C)[C@H](OC(C)=O)[C@@H]1C (stereo partly drawn)"
  target-under-test: "T-47D breast"
  class: -1
- molecule: "FC(F)(F)c1cccc(Oc2ccc(Nc3ncnc4ccc(OCCCN5CCOCC5)cc34)cc2Cl)c1"
  target-under-test: "T-47D breast"
  class: -1
- molecule: "Oc1c(CN2CCCCC2)ccc2cccnc12"
  target-under-test: "T-47D breast"
  class: -1

* * *

# Tested on: K-562 leukemia
Possible outcomes: active, inactive

- smiles-input: "O=c1oc2ccc(F)cc2c(=O)n1-c1ccc(I)cc1F"
  class: "active"
- smiles-input: "C#Cc1cccc(Nc2nc(C)nc3cc(NC(=O)CCl)ccc23)c1"
  class: "inactive"
- smiles-input: "COc1ccc2c(c1)C(=O)/C(=C/c1ccc(O)cc1)O2"
  class: "inactive"
- smiles-input: "FC(F)(F)c1cccc(Oc2ccc(Nc3ncnc4ccc(OCCCN5CCOCC5)cc34)cc2Cl)c1"
  class: "inactive"
- smiles-input: "COc1ccc(-c2c(NC(=O)Nc3ccc(Cl)c(C(F)(F)F)c3)cnn2-c2ccc(S(N)(=O)=O)cc2)cc1"
  class: "inactive"

* * *

# Test system: SF-539 CNS
# assay-text: NCI tumour cell line growth inhibition, 48 h
The following molecules are listed with their measured TGI values.

- molecule: "CC1(C)CC[C@]2(C(=O)NCCNCCN)CC[C@]3(C)C(=CC[C@@H]4[C@@]5(C)CCC(=O)C(C)(C)[C@@H]5CC[C@]43C)[C@@H]2C1"
  target-under-test: "SF-539 CNS"
  TGI: "3.11 µM"
- molecule: "CO/S(=N/S(=O)(=O)c1ccccc1)c1ccccc1[N+](=O)[O-] (stereo not given)"
  target-under-test: "SF-539 CNS"
  TGI: "> 100 µM"
- molecule: "CCOC(=O)C(=CNc1ccc(S(N)(=O)=O)cc1)C(=O)OCC"
  target-under-test: "SF-539 CNS"
  TGI: "> 100 µM"
- molecule: "N#Cc1ccc2[nH]cc(Cc3c[nH]c4ccc(C#N)cc34)c2c1"
  target-under-test: "SF-539 CNS"
  TGI: "16.9 µM"
- molecule: "COc1c(O)cc2c(c1O)C(=O)C(Cc1ccc(O)cc1)CO2 (stereo not given)"
  target-under-test: "SF-539 CNS"
  TGI: "> 100 µM"
- molecule: "O=C1CC=C2C3CC4N(CCC45c4ccccc4N1C25)C/C3=C\\CO (stereo not given)"
  target-under-test: "SF-539 CNS"
  TGI: "> 100 µM"
- molecule: "CSc1c(C(N)=S)c(N)nn1-c1ccccc1"
  target-under-test: "SF-539 CNS"
  TGI: "> 100 µM"
- molecule: "COc1cc2c(c(OC)c1OC)-c1ccc(OC)c(=O)cc1C(NC(=O)CCCCCNc1ccc(N=[N+]=[N-])cc1[N+](=O)[O-])CC2 (stereo not given)"
  target-under-test: "SF-539 CNS"
  TGI: "< 0.01 µM"
- molecule: "N#CC1(C#N)C(=O)c2ccncc2C1=O"
  target-under-test: "SF-539 CNS"
  TGI: "> 100 µM"
- molecule: "CO[C@H]1/C=C/O[C@@]2(C)Oc3c(C)c(O)c4c(O)c(c(/C=N/N5C(C)CN(Cc6ccc(C#N)cc6)CC5C)c(O)c4c3C2=O)NC(=O)/C(C)=C\\C=C\\[C@H](C)[C@H](O)[C@@H](C)[C@@H](O)[C@@H](C)[C@H](OC(C)=O)[C@@H]1C (stereo not given in full)"
  target-under-test: "SF-539 CNS"
  TGI: "13 µM"
- molecule: "COc1cc(/C=C2\\C[C@H]3[C@@H]4CC=C5C[C@@H](O)CC[C@]5(C)[C@H]4CC[C@]3(C)[C@H]2O)ccc1OCCN1CCCCC1"
  target-under-test: "SF-539 CNS"
  TGI: "2.1 µM"
- molecule: "NC(CCl)=NCC12CC3CC(CC(C3)C1)C2"
  target-under-test: "SF-539 CNS"
  TGI: "11.2 µM"
- molecule: "Brc1ccc2nc(-c3cccs3)nc(N3CCN(c4ccccc4)CC3)c2c1"
  target-under-test: "SF-539 CNS"
  TGI: "> 100 µM"
- molecule: "CCOC(=O)NC(=O)c1cn(CCN(CCO)C(=O)NCCCCCCNC(=O)N(CCO)CCn2cc(C(=O)NC(=O)OCC)c(=O)[nH]c2=O)c(=O)[nH]c1=O"
  target-under-test: "SF-539 CNS"
  TGI: "> 100 µM"
- molecule: "CC(C)(C)c1cc[n+](C[n+]2ccc(C(C)(C)C)cc2)cc1"
  target-under-test: "SF-539 CNS"
  TGI: "> 100 µM"
